tested on: Aβ42; assay: In vivo efficacy: Aβ42 lowering in brain after single oral dose (Table 8); conditions: mouse brain soluble fraction, ELISA, compared to untreated animals; further: test concentration or dose not given here
Reported Metric: Aβ42 (% Ctrl)_Mean
Only the number, expressed in % Ctrl, is required.

Example entries and their recorded answers appear below.
1. COc1cccc(-c2nc3c(Nc4ccc(-c5cnc(C)o5)nc4)cc(F)cc3n2C)c1; 104
2. Cc1ncc(-c2ccc(Nc3cccc4c3nc(-c3ccc(F)cc3)n4C(C)C)cn2)o1; 54
3. Cc1ncoc1-c1ccc(Nc2cccc3c2nc(-c2ccc(F)cc2)n3C)nc1; 106
4. COc1cc(Nc2nccc3c2nc(-c2ccc(F)cc2F)n3C)ccc1-c1ocnc1C; 101

Next item in the queue.
**Q:** What Aβ42 (% Ctrl)_Mean value was documented for this compound, COc1cc(Nc2nc(C)cc3c2nc(-c2ccc(F)cc2)n3C)ccc1-c1cnc(C)o1 ?
**A:** 97

----------
test system: Aβ42; assay: In vivo efficacy: Aβ42 lowering in brain after single oral dose (Table 8); settings: mouse brain soluble fraction, ELISA, compared to untreated animals; further: test concentration or dose not given here
Reported Metric: Aβ42 (% Ctrl)_Mean
Answer with a number only, understood to be in % Ctrl.

Example molecules with recorded Aβ42 (% Ctrl)_Mean:
1. COc1ccc(C)c(-c2cn3cccc(Nc4ccc(-c5cnc(C)o5)c(F)c4)c3n2)c1 [Compound 41]; 93
2. COc1cccc(-c2nc3c(Nc4ccc(-c5ocnc5C)c(OC)c4)cccn3c2C)c1 [Compound 2]; 95
3. COc1cc(Nc2cc(C(F)(F)F)cn3cc(C)nc23)ccc1-c1ocnc1C.Cl.Cl [Compound 141]; 87

**Q:** Notebook: pull reported Aβ42 (% Ctrl)_Mean for Aβ42, entry COc1cc(Nc2nccc3c2nc(-c2ccc(F)cc2)n3C)ccc1-c1cnc(C)o1 [Compound 14]
**A:** 78

**Q:** Please give the result for COc1cc(Nc2nccc3c2nc(-c2ccc(F)cc2F)n3C)ccc1-c1cnc(C)o1 [Compound 31] too.
**A:** 91

----------
system: Aβtotal; experiment: Method 2: Aβtotal Alphalisa in supernatant of SKNBE2 cells carrying APP 695-wild type (Table 7c); type: cell-based; settings: Method 2, Alphalisa, overnight incubation
pIC50: −log10 of the molar value.
Reported Metric: pIC50

Worked set:
1) COc1nc(Nc2cccc3c2nc(-c2ccc(F)cc2)n3C(C)C)ccc1-c1ccnc(C)c1; < 5.00
2) Cc1cc(-c2ccc(Nc3cccn4c(C)c(-c5ccccc5Cl)nc34)cc2F)ccn1; 5.11
3) Cc1ncoc1-c1ccc(Nc2cccc3c2nc(-c2ccc(F)cc2)n3C)cn1; < 5.00
4) Cc1cc(-c2ccc(Nc3cccc4c3nc(-c3ccc(F)cc3)n4C(C)C)cc2)cc(C)n1; < 5.00
5) COc1cc(Nc2cc(C(F)(F)F)nn3cc(C)nc23)ccc1-c1cnc(C)o1; < 5.00
6) COCc1ncc(-c2ccc(Nc3cccc4c3nc(-c3ccc(F)cc3)n4C(C)C)cc2)o1; < 5.00
7) COc1cc(Nc2cccc3c2nc(C2CCOCC2)n3C(C)C)ccc1-c1cnc(C)o1; < 5.00
8) COc1cc(Nc2cccc3c2nc(-c2ccc(F)cc2)n3C)ccc1-c1ccnc(C)c1; 5.18

**Q:** Quick one: pIC50 for COc1cc(Nc2nc(C)cc3c2nc(-c2ccccc2Cl)n3C)ccc1-c1ocnc1C ?
**A:** 5.31

**Q:** Entry Cc1cn2cccc(Nc3ccc(-c4cnc(C)o4)nc3)c2n1 please
**A:** < 5.00

**Q:** Also, COc1cc(Nc2cc(C#N)cn3cc(C)nc23)ccc1-c1ocnc1C please.
**A:** 5.20

**Q:** Continue with COCc1c(-c2ccc(F)cc2)nc2c(Nc3ccc(-c4cnc(C)o4)c(OC)c3)cccn12
**A:** < 5.00

**Q:** Same for COc1cc(Nc2cc(C#N)cn3cc(CC(C)C)nc23)ccc1-c1ocnc1C
**A:** 5.07

**Q:** What do we get for Cc1ncc(-c2ccc(Nc3ccnc4c3nc(-c3ccc(F)cc3)n4C)cc2F)o1 ?
**A:** < 5.00

**Q:** And COc1cc(Nc2cccc3c2nc(-c2ccc(F)cc2)n3C)ccc1-c1cnn(C)n1 ?
**A:** 5.25

**Q:** Try the molecule COc1cc(Nc2cncc3c2nc(-c2ccc(F)cc2)n3C)ccc1-c1cnc(C)o1
**A:** < 5.00

**Q:** Then COc1cccc(-c2nc3c(Nc4ccc(-c5cnc(C)o5)nc4)cc(F)cc3n2C)c1 ?
**A:** < 5.00
